Value source: patent US20090312306A1

- tested target: h5-HT2c (vsv) (Homo sapiens, UniProt P28335, I156V/I160V/N158S)
- Sequence (P28335 33-458 I156V/N158S/I160V limits assumed): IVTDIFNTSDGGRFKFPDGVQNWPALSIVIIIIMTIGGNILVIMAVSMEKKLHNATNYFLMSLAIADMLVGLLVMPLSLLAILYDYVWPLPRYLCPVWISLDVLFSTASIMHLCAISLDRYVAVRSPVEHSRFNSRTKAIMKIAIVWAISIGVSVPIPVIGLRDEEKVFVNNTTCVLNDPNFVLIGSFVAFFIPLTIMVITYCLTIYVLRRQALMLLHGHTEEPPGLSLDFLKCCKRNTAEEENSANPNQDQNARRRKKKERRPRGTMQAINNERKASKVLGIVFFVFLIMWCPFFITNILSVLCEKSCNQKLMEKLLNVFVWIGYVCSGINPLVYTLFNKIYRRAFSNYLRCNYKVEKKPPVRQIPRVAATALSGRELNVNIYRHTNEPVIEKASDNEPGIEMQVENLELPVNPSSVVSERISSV
- test summary: cell-based
Overview of recorded EC50 for various compounds
measurement kind: EC50 (nM)

[
  {
    "compound": "CC1CNCCc2ccc(N3CCCOCC3)nc21 (stereo not shown)",
    "experimental value": 21.7
  },
  {
    "compound": "CCN(C)c1ccc2c(n1)CCNCC2",
    "experimental value": 18
  },
  {
    "compound": "CCC1CNCCc2ccc(N3CCCCC3)nc21 (stereo not shown)",
    "experimental value": 16.4
  },
  {
    "compound": "FC1CCN(c2nc3c(cc2Cl)CCNCC3)CC1",
    "experimental value": 95.8
  },
  {
    "compound": "CC1CNCCc2ccc(N3CCOCC3)nc21 (stereo not shown)",
    "experimental value": 47.7
  },
  {
    "compound": "Clc1cc2c(nc1N1CCCOCC1)CCNCC2",
    "experimental value": 67.8
  },
  {
    "compound": "C[C@@H]1CNCCc2ccc(N3CCOCC3)nc21",
    "experimental value": 58.1
  },
  {
    "compound": "CC1CNCCc2ccc(N3CCCCCC3)nc21 (stereo not shown)",
    "experimental value": 6.2
  },
  {
    "compound": "CCC1CNCCc2ccc(N(C)CC)nc21 (stereo not shown)",
    "experimental value": 35.9
  },
  {
    "compound": "Clc1cc2c(nc1N1CCCCC1)CCNCC2",
    "experimental value": 74.2
  },
  {
    "compound": "CN(C)c1ccc2c(n1)CCNCC2",
    "experimental value": 213
  },
  {
    "compound": "CCN(C)c1ccc2c(n1)[C@H](C)CNCC2",
    "experimental value": 8.3
  },
  {
    "compound": "CC(C)C1CNCCc2ccc(N3CCCCCC3)nc21 (stereo not shown)",
    "experimental value": 139
  }
]

###

- tested target: h5-HT2c (vsv) (Homo sapiens, UniProt P28335, I156V/I160V/N158S)
- test summary: cell-based

[
  {
    "compound": "CCC1CNCCc2ccc(N3CCOCC3)nc21 (centres unmarked)",
    "EC50 / nM": 101
  },
  {
    "compound": "CCN(C)c1nc2c(cc1Br)CCNCC2",
    "EC50 / nM": 100
  },
  {
    "compound": "c1cc2c(nc1N1CCCNCC1)CCNCC2",
    "EC50 / nM": 262
  },
  {
    "compound": "CC1CNCCc2ccc(N3CCC(F)(F)CC3)nc21 (centres unmarked)",
    "EC50 / nM": 29.4
  },
  {
    "compound": "CCN(C)c1ccc2c(n1)C(C)CNCC2 (centres unmarked)",
    "EC50 / nM": 29.2
  }
]
